- system.name: Glutamate receptor ionotropic, NMDA 1 (Rattus norvegicus)
- measurement.protocol: Binding affinity for glycine site-NMDA receptor was determined by the ability to displace [3H]glycine in rat cortical membranes at 10 uM
- Type: cell membranes
Label rule met when Displacement is strictly below 50%; at or above that, label rule not met.

compound: Cc1cc2[nH]c(=O)c(=O)n(CCC(=O)O)c2cc1C
assigned.class: rule not met
//
compound: Cc1cc2[nH]c(=O)c(=O)n(C(C)C(=O)O)c2cc1C (configuration not stated)
assigned.class: rule met
//
compound: Cc1cc2[nH]c(=O)c(=O)n(CCCC(=O)O)c2cc1C
assigned.class: rule met
//
compound: Cc1ccc(S(=O)(=O)NC(=O)Cn2c(=O)c(=O)[nH]c3cc(C)c(C)cc32)cc1
assigned.class: rule met
//
compound: O=c1[nH]c2cc(Cl)c(Cl)cc2n(Cc2nn[nH]n2)c1=O
assigned.class: rule not met
//
compound: Cc1cc2[nH]c(=O)c(=O)n(CC(=O)NS(C)(=O)=O)c2cc1C
assigned.class: rule met

---

- system.name: Glutamate receptor ionotropic, AMPA (Rattus norvegicus) (UniProt P19491+P19492+P19493+P19490)
- measurement.protocol: Binding affinity for Ionotropic glutamate receptor AMPA was determined by the ability to displace [3H]AMPA in rat cortical membranes at 10 uM
- Format: cell membranes

compound: Cc1cc2[nH]c(=O)c(=O)n(CC(=O)Nc3ccccc3)c2cc1C
unit.symbol: %
Displacement: 5.2

compound: Cc1cc2[nH]c(=O)c(=O)n(CC(=O)NS(C)(=O)=O)c2cc1C
unit.symbol: %
Displacement: 49

compound: Cc1ccc(S(=O)(=O)NC(=O)Cn2c(=O)c(=O)[nH]c3cc(C)c(C)cc32)cc1
unit.symbol: %
Displacement: 28

compound: COC(=O)Cn1c(=O)cnc2cc(C)c(C)cc21
unit.symbol: %
Displacement: 4.6

compound: O=c1[nH]c2cc(Cl)c(Cl)cc2n(Cc2nn[nH]n2)c1=O
unit.symbol: %
Displacement: 58.6

compound: Cc1cc2[nH]c(=O)c(=O)n(CCC(=O)O)c2cc1C
unit.symbol: %
Displacement: 28.5

compound: Cc1cc2[nH]c(=O)c(=O)n(Cc3nn[nH]n3)c2cc1C
unit.symbol: %
Displacement: 52.4

compound: Cc1cc2[nH]c(=O)c(=O)n(C(C)C(=O)O)c2cc1C (stereo not drawn)
unit.symbol: %
Displacement: 13.9

---

# Lookup of reported Ki keyed by entry
- system.name: Glutamate receptor ionotropic, NMDA 1 (Rattus norvegicus)
- measurement.protocol: Binding affinity for glycine site-NMDA receptor was determined by the ability to displace [3H]glycine in rat cortical membranes

smiles.data: Cc1cc2[nH]c(=O)c(=O)n(CP(=O)(O)O)c2cc1C
system.name: Glutamate receptor ionotropic, NMDA 1 (Rattus norvegicus)
Ki: 5.28 µM
//
smiles.data: Cc1cc2[nH]c(=O)c(=O)n(CC(=O)O)c2cc1C
system.name: Glutamate receptor ionotropic, NMDA 1 (Rattus norvegicus)
Ki: 13.8 µM
//
smiles.data: O=C(O)Cn1c(=O)c(=O)[nH]c2cc(Cl)c(Cl)cc21
system.name: Glutamate receptor ionotropic, NMDA 1 (Rattus norvegicus)
Ki: 0.11 µM

---

- system.name: Glutamate receptor ionotropic, AMPA (Rattus norvegicus, UniProt P19490+P19491+P19492+P19493)
pKi: −log10 of the molar value.
reported.metric: pKi

smiles.data: Cc1cc2[nH]c(=O)c(=O)n(CC(=O)O)c2cc1C
reported.metric: pKi
measured: 6.15
//
smiles.data: Cc1cc2[nH]c(=O)c(=O)n(CP(=O)(O)O)c2cc1C
reported.metric: pKi
measured: 5.92
//
smiles.data: Cc1cc2[nH]c(=O)c(=O)n(CCCC(=O)O)c2cc1C
reported.metric: pKi
measured: 5.10
//
smiles.data: O=C(O)Cn1c(=O)c(=O)[nH]c2cc(Cl)c(Cl)cc21
reported.metric: pKi
measured: 5.68
